FYI, the data here is from ChEMBL document CHEMBL4483862.

- Tested on: Plasmodium berghei
- Procedure details: Luciferase/luciferin-expressing antifolate-resistant parasites were used to infect a culture of HepG2 cells that were pre-incubated with compounds. Infected hepatocytes emit light due to the luciferase reaction. Assay results are presented as the percent inhibition of light emission compared to control. […]
- Assay type: functional
- Settings: sporozoite, PBLUC_HILL_SLOPE 0.5, PBLUC_R_SQUARED 0.259, read-out: LUCIFERASE INFECTION ASSAY - IC50
pIC50: −log10 of the molar value.
Assay metric: pIC50

Would you mind telling me what pIC50 value was observed for `O=C(NCCc1nc(-c2ccccc2)no1)c1cc2cc(Cl)ccc2o1` ? < 5.05
